Provenance of the data: the OligoGym collection

Listed below: normalised inhibition (eCFP-eYFP dual reporter) values for each entry.
subject-of-test: UBE2D3
assay-details: reporter assay of Huesken 2005; note: test concentration or dose not given here
assay-context: siRNA
Oligonucleotides are given in HELM: sugar(base)linkage, 5' to 3'; d 2'-deoxyribose, r ribose, m 2'-O-methylribose, p phosphate. ss, as = sense and antisense strand
Give a bare numeral; the unit % is implied.

RNA1{r(U)p.r(C)p.r(U)p.r(A)p.r(A)p.r(A)p.r(G)p.r(U)p.r(U)p.r(C)p.r(U)p.r(U)p.r(U)p.r(U)p.r(A)p.r(U)p.r(C)p.r(C)p.r(A)p.d(T)p.d(T)}|RNA2{r(U)p.r(G)p.r(G)p.r(A)p.r(U)p.r(A)p.r(A)p.r(A)p.r(A)p.r(G)p.r(A)p.r(A)p.r(C)p.r(U)p.r(U)p.r(U)p.r(A)p.r(G)p.r(A)p.d(A)p.d(A)}$$$RNA1{StrandType:ss}|RNA2{StrandType:as}$
64.2
RNA1{r(U)p.r(U)p.r(C)p.r(A)p.r(A)p.r(A)p.r(C)p.r(C)p.r(A)p.r(C)p.r(C)p.r(U)p.r(A)p.r(A)p.r(G)p.r(G)p.r(U)p.r(U)p.r(G)p.d(T)p.d(T)}|RNA2{r(C)p.r(A)p.r(A)p.r(C)p.r(C)p.r(U)p.r(U)p.r(A)p.r(G)p.r(G)p.r(U)p.r(G)p.r(G)p.r(U)p.r(U)p.r(U)p.r(G)p.r(A)p.r(A)p.d(G)p.d(G)}$$$RNA1{StrandType:ss}|RNA2{StrandType:as}$
64.4

We now examine a further substance.
Recorded result, `RNA1{r(A)p.r(A)p.r(U)p.r(U)p.r(C)p.r(A)p.r(U)p.r(U)p.r(U)p.r(U)p.r(C)p.r(C)p.r(U)p.r(A)p.r(C)p.r(A)p.r(G)p.r(A)p.r(C)p.d(T)p.d(T)}|RNA2{r(G)p.r(U)p.r(C)p.r(U)p.r(G)p.r(U)p.r(A)p.r(G)p.r(G)p.r(A)p.r(A)p.r(A)p.r(A)p.r(U)p.r(G)p.r(A)p.r(A)p.r(U)p.r(U)p.d(G)p.d(T)}$$$RNA1{StrandType:ss}|RNA2{StrandType:as}$` , normalised inhibition (eCFP-eYFP dual reporter): 62.3

----------
subject-of-test: SOST
assay-details: reporter assay of Huesken 2005
assay-context: siRNA
Oligonucleotides are given in HELM: sugar(base)linkage, 5' to 3'; d 2'-deoxyribose, r ribose, m 2'-O-methylribose, p phosphate. ss, as = sense and antisense strand
Measured normalised inhibition (eCFP-eYFP dual reporter), listed per entry for reference.
Please state the number and follow it with the unit.

Reported normalised inhibition (eCFP-eYFP dual reporter) (SOST) for entry `RNA1{r(G)p.r(C)p.r(C)p.r(C)p.r(A)p.r(A)p.r(C)p.r(G)p.r(C)p.r(C)p.r(A)p.r(U)p.r(C)p.r(G)p.r(G)p.r(C)p.r(C)p.r(G)p.r(C)p.d(T)p.d(T)}|RNA2{r(G)p.r(C)p.r(G)p.r(G)p.r(C)p.r(C)p.r(G)p.r(A)p.r(U)p.r(G)p.r(G)p.r(C)p.r(G)p.r(U)p.r(U)p.r(G)p.r(G)p.r(G)p.r(C)p.d(A)p.d(G)}$$$RNA1{StrandType:ss}|RNA2{StrandType:as}$` is 64.3%

Item: `RNA1{r(G)p.r(A)p.r(G)p.r(G)p.r(G)p.r(C)p.r(C)p.r(A)p.r(G)p.r(G)p.r(G)p.r(G)p.r(U)p.r(G)p.r(G)p.r(C)p.r(A)p.r(G)p.r(G)p.d(T)p.d(T)}|RNA2{r(C)p.r(C)p.r(U)p.r(G)p.r(C)p.r(C)p.r(A)p.r(C)p.r(C)p.r(C)p.r(C)p.r(U)p.r(G)p.r(G)p.r(C)p.r(C)p.r(C)p.r(U)p.r(C)p.d(C)p.d(A)}$$$RNA1{StrandType:ss}|RNA2{StrandType:as}$` | System: SOST | normalised inhibition (eCFP-eYFP dual reporter): 71.1%

normalised inhibition (eCFP-eYFP dual reporter) on SOST for `RNA1{r(G)p.r(C)p.r(U)p.r(C)p.r(C)p.r(G)p.r(G)p.r(C)p.r(C)p.r(A)p.r(G)p.r(U)p.r(G)p.r(C)p.r(G)p.r(G)p.r(C)p.r(C)p.r(C)p.d(T)p.d(T)}|RNA2{r(G)p.r(G)p.r(G)p.r(C)p.r(C)p.r(G)p.r(C)p.r(A)p.r(C)p.r(U)p.r(G)p.r(G)p.r(C)p.r(C)p.r(G)p.r(G)p.r(A)p.r(G)p.r(C)p.d(A)p.d(C)}$$$RNA1{StrandType:ss}|RNA2{StrandType:as}$` is 53%

Readout normalised inhibition (eCFP-eYFP dual reporter) for `RNA1{r(U)p.r(A)p.r(G)p.r(U)p.r(G)p.r(G)p.r(A)p.r(G)p.r(G)p.r(G)p.r(C)p.r(C)p.r(A)p.r(G)p.r(G)p.r(G)p.r(G)p.r(U)p.r(G)p.d(T)p.d(T)}|RNA2{r(C)p.r(A)p.r(C)p.r(C)p.r(C)p.r(C)p.r(U)p.r(G)p.r(G)p.r(C)p.r(C)p.r(C)p.r(U)p.r(C)p.r(C)p.r(A)p.r(C)p.r(U)p.r(A)p.d(C)p.d(A)}$$$RNA1{StrandType:ss}|RNA2{StrandType:as}$` , test system SOST, was 72%

Entry `RNA1{r(C)p.r(U)p.r(U)p.r(C)p.r(A)p.r(C)p.r(C)p.r(C)p.r(G)p.r(C)p.r(U)p.r(A)p.r(C)p.r(G)p.r(U)p.r(G)p.r(A)p.r(C)p.r(C)p.d(T)p.d(T)}|RNA2{r(G)p.r(G)p.r(U)p.r(C)p.r(A)p.r(C)p.r(G)p.r(U)p.r(A)p.r(G)p.r(C)p.r(G)p.r(G)p.r(G)p.r(U)p.r(G)p.r(A)p.r(A)p.r(G)p.d(T)p.d(G)}$$$RNA1{StrandType:ss}|RNA2{StrandType:as}$` : normalised inhibition (eCFP-eYFP dual reporter) on SOST = 59.4%
